Assay: Permeability of the compound
Type: ADME
Settings: not told; read-out: permeability
assay-readout: Papp (×10⁻⁶ cm/s)
Enter your answer as a number in ×10⁻⁶ cm/s; do not include the unit.

Inquiry: Need Papp of Nc1ncnc2c1O[C@@H](c1ccc([C@H]3CC[C@H](CC(=O)O)CC3)cc1)CO2 , thanks.
Reply text: 7.7

---

Target: hERG (KCNH2) (Homo sapiens)
Sequence (Q12809 whole entry): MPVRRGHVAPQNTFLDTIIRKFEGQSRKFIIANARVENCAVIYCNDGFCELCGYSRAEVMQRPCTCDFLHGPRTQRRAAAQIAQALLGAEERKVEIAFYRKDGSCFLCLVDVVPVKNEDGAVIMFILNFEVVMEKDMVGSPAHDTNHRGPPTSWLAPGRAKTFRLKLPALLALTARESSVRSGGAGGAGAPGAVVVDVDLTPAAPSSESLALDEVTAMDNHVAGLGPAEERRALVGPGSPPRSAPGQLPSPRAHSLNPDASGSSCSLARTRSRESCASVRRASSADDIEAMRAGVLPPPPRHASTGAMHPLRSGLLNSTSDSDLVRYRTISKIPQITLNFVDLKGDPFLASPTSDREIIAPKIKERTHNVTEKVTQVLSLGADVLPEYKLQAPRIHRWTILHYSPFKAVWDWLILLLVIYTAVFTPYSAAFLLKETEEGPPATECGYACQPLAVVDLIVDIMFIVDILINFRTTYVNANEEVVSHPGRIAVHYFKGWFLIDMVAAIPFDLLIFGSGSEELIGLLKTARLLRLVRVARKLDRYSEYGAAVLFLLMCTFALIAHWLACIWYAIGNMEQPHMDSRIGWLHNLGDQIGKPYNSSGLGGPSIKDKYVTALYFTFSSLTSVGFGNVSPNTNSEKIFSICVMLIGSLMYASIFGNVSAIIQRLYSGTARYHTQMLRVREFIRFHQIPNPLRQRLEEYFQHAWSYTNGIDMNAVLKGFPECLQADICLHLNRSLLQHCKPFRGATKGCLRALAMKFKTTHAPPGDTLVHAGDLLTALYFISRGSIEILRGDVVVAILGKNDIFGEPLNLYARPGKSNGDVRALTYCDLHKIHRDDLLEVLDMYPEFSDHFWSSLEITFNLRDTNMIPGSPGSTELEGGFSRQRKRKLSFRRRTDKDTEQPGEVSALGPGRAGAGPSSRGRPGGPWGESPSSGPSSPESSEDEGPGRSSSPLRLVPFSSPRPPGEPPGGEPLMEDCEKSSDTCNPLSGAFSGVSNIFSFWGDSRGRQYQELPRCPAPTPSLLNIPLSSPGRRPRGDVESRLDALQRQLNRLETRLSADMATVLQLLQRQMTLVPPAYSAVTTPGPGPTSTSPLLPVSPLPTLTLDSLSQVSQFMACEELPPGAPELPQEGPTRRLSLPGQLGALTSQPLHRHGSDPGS
Experiment: Inhibition of human ERG at 30 uM
assay-readout: inhibition at 30 µM

Inquiry: Need inhibition at 30 µM of Nc1ncnc2c1O[C@@H](c1ccc([C@H]3CC[C@H](CC(=O)O)CC3)cc1)CO2 , thanks.
Reply text: 8%

---

Assay: Clearance in rat
Assay type: ADME, organism-based
Conditions: in vivo
assay-readout: clearance (mL/min/kg)
Enter your answer as a number in mL/min/kg; do not include the unit.

Inquiry: Need clearance of Nc1ncnc2c1O[C@@H](c1ccc([C@H]3CC[C@H](CC(=O)O)CC3)cc1)CO2 , thanks.
Reply text: 2
